Test: Plasma pharmacokinetics and tissue distribution 2 h after oral cabazitaxel 10 mg/kg with vehicle or 25 mg/kg ritonavir in wild-type, Oatp1a/1b−/−, Oatp1a/1b/2b1−/−, OATP1B1- and OATP1B3-transgenic mice
Type: in vivo
Settings: male, FVB, Oatp1a/1b−/−, mouse, plasma, po, 10 mg/kg, Oatp1a/1b−/− mice; ritonavir 25 mg/kg oral; cabazitaxel 10 mg/kg oral; read-out: AUC0-2 h
ENDPOINT: AUC(0-t) (µM·h)

>>> data_value("CO[C@H]1C(=O)[C@]2(C)[C@@H](OC)C[C@H]3OC[C@@]3(OC(C)=O)[C@H]2[C@H](OC(=O)c2ccccc2)[C@]2(O)C[C@H](OC(=O)[C@H](O)[C@@H](NC(=O)OC(C)(C)C)c3ccccc3)C(C)=C1C2(C)C [cabazitaxel]")
7.89

Provenance of the data: patent US20240226072A1
